Could you please report measured composite z-score for the items listed next?
- assay_protocol: probe aLefty2 binding to arrayed compounds – biochemical, biotinylated probe, 635/667 nm fluorescence, primary screen (AID 1094);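 further: score merges spot fluorescence near 667 nm with spot signal-to-noise ratio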
- condition_label: small-molecule microarray, higher = more signal
Numbers only.

Here are 3 compounds together with their reported answers.
compound	composite z-score
O=C1N(Cc2ccccc2)c2ccccc2C[C@]12N=C(c1ccc(OCCCO)cc1)O[C@@H]2c1ccccc1	0.102
CC[C@@H]1O[Si](C(C)C)(C(C)C)c2c1cc(-c1cc(C)c(OC)c(C)c1)nc2-c1ccc(Oc2ccccc2)cc1	-0.123
COc1cc(NN2C(C(O)c3ccc(N(C)C)cc3)C=CC3C(=O)N(c4ccccc4)C(=O)C32)cc(OC)c1OC (centres undefined)	0.473

Qu. Name the reported composite z-score value associated with the compound CC[C@@H]1C=C(C(=O)O)[C@H](c2ccccc2)N1S(=O)(=O)c1ccc(C)cc1
Ans. 0.262

---

- System: XIP peptide (Xip251-270) binding
- assay_protocol: XIP fragment 251-270 binding compounds – biochemical, small-molecule microarray, fluorescence 635/667 nm, 0.1 µg/mL protein, primary screen (AID 1182)
- condition_label: fluorescent protein binding, 635 nm, higher = more signal, called active from +8 up or from −8 down
Mark N for composite z-score values under 0.3, and Y for everything at or above.

Would you please look over these solved cases?
compound	group_label
CC(C)C(CO)N1C(=O)[C@@H]2C3C(=O)OCCC/C=C\[C@H]3OC23C=CCN(c2ccc4ccccc4c2)C(=O)[C@@H]13 (stereo not given in full)	N
COc1ccc([Si](C)(C)[C@@H]2[C@@H](CCO)O[C@]3(C(=O)N(Cc4ccccc4)c4ccc(N5C(=O)c6cccc7cccc5c67)cc43)[C@H]2C)cc1	Y
C#CCN([C@@H](Cc1ccccc1)C(=O)OC)[C@@H](/C=C/C1CC1)[C@H](O)Cc1ccccc1	N
N[C@@H](Cc1ccccc1)C(=O)NCc1cn(Cc2ccccc2)nn1	N
CCOC(=O)C[C@H]1[C@H](OC(=O)c2ccc(C(=O)c3ccccc3)cc2)[C@@H](NC(=O)c2ccc3ccccc3n2)c2cc(OCCCO)ccc2N1C(=O)Cc1ccc(OC)cc1	N

Qu. I'd appreciate it if you could say whether Cc1ccc(S[C@]2(C(=O)NCC(F)(F)F)CC(=O)N(Cc3cc(C(F)(F)F)cc(C(F)(F)F)c3)[C@@H]2c2ccc(CO)cc2)cc1 has composite z-score at least equal to 0.3.
Ans. N

Qu. Now consider [N-]=[N+]=Nc1ccccc1[C@@H]1OC(c2ccc(OCCCO)cc2)=N[C@]1(Cc1ccccc1)C(=O)N1CCCCC1 and answer again.
Ans. Y

Qu. Now consider CC(C)NC(=O)[C@@]1(C)c2ccccc2C(=O)N(Cc2ccc(OC(F)(F)F)cc2)[C@H]1c1ccc(CO)cc1 and answer again.
Ans. Y

Qu. Now consider CC(C)C[C@@H]1NC(=O)[C@@H]2C[C@H](C(=O)NCCCCCCN)[C@H](c3cccc(OCCO)c3)N2C1=O and answer again.
Ans. Y

Qu. Now consider COC(=O)[C@@]1(Cc2ccc(OC)cc2)[C@H]2c3cc(C(=O)N4CCCC4)n(CCc4c[nH]c5ccc(OC)cc45)c3C[C@H]2CN1C(=O)c1ccccc1 and answer again.
Ans. N

Qu. Now consider C=C(/C(=C/C[C@H](OC(C)=O)c1ccc(CO)o1)c1cnc2ccccc2c1)C(C)C and answer again.
Ans. N

Qu. Now consider COc1cc(OC)c(C(O)C2C=CC3C(=O)N(Cc4ccccc4)C(=O)C3N2n2cnnc2)cc1Br (stereo not given) and answer again.
Ans. N

Qu. Now consider CCOC(=O)C1=CC[C@@H](c2ccccc2F)N(S(=O)(=O)c2ccc(C)cc2)[C@H]1c1ccccc1 and answer again.
Ans. N

Qu. Now consider CN(C)CCCCCCNC(=O)[C@@H]1C[C@@H]2C(=O)N3CCC[C@H]3C(=O)N2[C@@H]1c1cccc(OCCO)c1 and answer again.
Ans. Y

Qu. Now consider COC(=O)[C@@]1(Cc2ccc(OC)cc2)[C@H]2c3cc(C(=O)N4CCCC4)n(CCO)c3C[C@H]2CN1C(=O)c1ccccc1 and answer again.
Ans. Y

Qu. Now consider CC(C)=C1C(=O)C(c2ccccc2)=C2CN3C(=O)N(CCc4ccccc4)C(=O)[C@]3(Cc3ccc(C(F)(F)F)cc3)[C@H]21 and answer again.
Ans. Y

Qu. Now consider CCCCC(CC)C(O)C1C=CC2C(=O)N(c3ccccc3)C(=O)C2N1Nc1ccccc1F (stereo not given) and answer again.
Ans. Y

Qu. Now consider NC(=O)NCC#Cc1ccc2c(c1)[C@]1(C(=O)N2)[C@H](c2ccccc2OCCO)N2[C@H](c3ccccc3)[C@H](c3ccccc3)OC(=O)[C@H]2[C@@H]1C(=O)O and answer again.
Ans. Y

Qu. Now consider COc1ccc([Si](C)(C)[C@@H]2[C@@H](CCO)O[C@]3(C(=O)N(Cc4ccccc4)c4ccc(NC(=O)[C@H](C)O)cc43)[C@H]2C)cc1 and answer again.
Ans. Y

Qu. Now consider CCCC=C(CCC)[C@@H](NC(=O)C(C)(C)C)c1ccc(C(=O)OC)cc1 and answer again.
Ans. N

Qu. Now consider O=C1OCCC=C[C@H]2OC34C=CCN(c5ccc6ccccc6c5)C(=O)[C@H]3N(CCCO)C(=O)[C@@H]4C12 (stereo not given in full) and answer again.
Ans. N

Qu. Now consider Cc1ccc(N2C(=O)c3ccccc3[C@@H](C(=O)NCCCN(C)C)[C@@H]2c2ccc(CO)cc2)nc1 and answer again.
Ans. Y

Qu. Now consider COCCCNC(=O)[C@@]1(Sc2ccc(C)cc2)CC(=O)N(C2Cc3ccccc3C2)[C@@H]1c1ccc(CO)cc1 and answer again.
Ans. Y

---

- assay_protocol: compound effects on lung adenocarcinoma cell viability – A549, calcein-AM fluorescence, 48 h, basal, profiling panel (AID 1162)
- condition_label: higher = more signal
measurement_label: z-score

Here are 7 compounds together with their reported answers.
compound	z-score
CN(C)C(=O)[C@@]1(Cc2ccccc2CN=[N+]=[N-])N=C(c2ccc(OCCCO)cc2)O[C@H]1c1ccccc1N=[N+]=[N-]	-1.63
O=C(NCCN1CCOCC1)[C@@H]1c2ccccc2C(=O)N(C2Cc3ccccc3C2)[C@H]1c1ccc(CO)cc1	2.31
C=CCNC(=O)[C@@H]1[C@H]2C(=O)O[C@H](c3ccccc3)[C@H](c3ccccc3)N2[C@H](c2ccccc2OCCO)[C@@]12C(=O)Nc1ccc(C#CCC(C(=O)OC)C(=O)OC)cc12	-0.423
CCOC(=O)C[C@H]1[C@H](OC(=O)c2ccc(C(=O)c3ccccc3)cc2)[C@@H](NC(=O)C2CCCCC2)c2cc(OCCCO)ccc2N1C(=O)c1ccc2ccccc2n1	0.123
CCCC=C(CCC)[C@@H](NC(=O)c1cccs1)c1ccc(C(=O)OC)cc1	0.126
NC(=O)[C@@]1(Cc2ccccc2)COC(c2ccc(OCCCO)cc2)=N1	-0.291
CN1C(=O)C2C=CC(C(O)c3cccn3C)N(Nc3ccc([N+](=O)[O-])cc3[N+](=O)[O-])C2C1=O (stereo not drawn)	-0.49

Please find the next compound below.
Qu. Name the reported z-score value associated with the compound COC(=O)[C@@]1(Cc2ccccc2)[C@H]2c3cc(C(=O)N(C)C)n(Cc4ccc(C)o4)c3C[C@H]2CN1C(=O)c1ccccc1
Ans. -2.02

---

- assay_protocol: changes in parasitized red cell lysis, either direction – P. falciparum Indochina, OD700, 3 h, PSAC antagonist project, primary screen (AID 1156)
- condition_label: P. falciparum-infected erythrocytes, osmotic lysis, higher = more signal, called active from +8 up or from −8 down
Consider the reported z-score of an entry and match it to a band in Low: < 0.02; Medium: ≥ 0.02 and < 0.8; High: ≥ 0.8

Would you please look over these solved cases?
compound	group_label
CCOC(=O)C[C@H]1[C@H](OC(=O)c2cc3ccccc3oc2=O)[C@@H](NC(=O)CC(C)C)c2cc(OCCCO)ccc2N1C(=O)c1ccc2ccccc2n1	Medium
[N-]=[N+]=Nc1ccccc1C[C@]1(C(=O)NCCN2CCOCC2)COC(c2ccc(OCCCO)cc2)=N1	High
C=CCNC(=O)[C@@H]1[C@H]2C(=O)O[C@H](c3ccccc3)[C@H](c3ccccc3)N2[C@H](c2ccc(OCCO)cc2)[C@@]12C(=O)N(C(=O)OCCOC)c1ccc(C#Cc3ccc(OC)cc3)cc12	Medium
CCOC(=O)C1=CC[C@@H](c2ccccc2)N(S(=O)(=O)c2ccc(C)cc2)[C@H]1c1ccccc1	Medium
CCCC=C(CCC)[C@@H](NC(=O)C(C)(C)C)c1ccc(C(=O)OC)cc1	Low

Qu. Tag the class for O=C(C1N=C(c2ccc(OCCCO)cc2)N(c2ccccc2)O1)N1CCCCC1 (stereo not given)
Ans. Medium

Qu. Now consider COc1ccc(CCNC(=O)[C@@]2(Sc3ccc(C)cc3)CC(=O)N(Cc3ccccc3C(F)(F)F)[C@@H]2c2ccc(CO)cc2I)cc1 and answer again.
Ans. High

Qu. Now consider CC(C)N1CC=CC23O[C@@H]4C=CCCOC(=O)C4[C@H]2C(=O)N(CCCO)[C@@H]3C1=O (stereo not given in full) and answer again.
Ans. High

Qu. Now consider COC(=O)[C@@]1(Cc2ccc(F)cc2)[C@H]2c3cc(C(=O)N(C)C)n(Cc4ccc(OC(F)(F)F)cc4)c3C[C@H]2CN1C(=O)c1ccccc1 and answer again.
Ans. Low

Qu. Now consider NC(=O)[C@H]1[C@@H]2C(=O)O[C@@H](c3ccccc3)[C@@H](c3ccccc3)N2[C@@H](c2ccc(OCCO)cc2)[C@]12C(=O)Nc1ccc(C#CCCO)cc12 and answer again.
Ans. Low

Qu. Now consider CCCCC(CC)C(O)C1C=CC2C(=O)N(c3ccccc3)C(=O)C2N1Nc1ccc(C#N)cc1 (stereo not given) and answer again.
Ans. High

Qu. Now consider O=C(O)[C@@H]1[C@@H]2C(=O)N(c3ccccc3)C(=O)[C@@H]2C[C@@H]1Sc1ccccc1 and answer again.
Ans. Low

Qu. Now consider CC(C)NC(=O)[C@@]1(c2ccc([N+](=O)[O-])cc2)CC(=O)N(C2CCCCC2)[C@@H]1c1ccc(CO)cc1 and answer again.
Ans. Medium

Qu. Now consider NCCCCCCNC(=O)[C@@H]1C[C@@H]2C(=O)N[C@@H](CCCCN)C(=O)N2[C@@H]1c1ccc(O)cc1 and answer again.
Ans. Low
